- target.or.test.system: Alpha-1D adrenergic receptor (Homo sapiens) (UniProt P25100)
- Sequence (P25100 whole entry): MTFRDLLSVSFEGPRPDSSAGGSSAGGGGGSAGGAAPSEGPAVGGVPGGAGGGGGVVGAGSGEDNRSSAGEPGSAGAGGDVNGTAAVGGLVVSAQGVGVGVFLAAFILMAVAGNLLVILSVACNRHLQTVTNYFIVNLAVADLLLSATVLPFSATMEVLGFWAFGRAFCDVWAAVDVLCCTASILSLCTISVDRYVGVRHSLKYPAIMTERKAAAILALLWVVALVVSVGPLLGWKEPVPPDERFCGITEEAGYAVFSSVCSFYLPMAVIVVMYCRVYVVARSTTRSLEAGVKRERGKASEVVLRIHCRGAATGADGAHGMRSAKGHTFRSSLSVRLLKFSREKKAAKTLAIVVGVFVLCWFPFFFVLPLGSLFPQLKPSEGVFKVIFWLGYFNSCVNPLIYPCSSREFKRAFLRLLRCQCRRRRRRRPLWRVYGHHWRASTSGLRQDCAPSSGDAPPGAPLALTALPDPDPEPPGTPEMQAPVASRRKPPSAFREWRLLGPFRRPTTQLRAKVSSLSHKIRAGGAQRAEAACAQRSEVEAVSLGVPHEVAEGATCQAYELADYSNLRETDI
- test.context: Compound concentration 10 µM
- Description: PDSP Primary Binding target: ADRA1D - Compounds are tested at 10 uM concentration, plate are incubated at room temperature in the dark for 90 minutes. Reaction are stopped by vacuum filtration onto 0.3% polyethyleneimine soaked filter mats using Filtermate harvester. Scintilation cocktail is then melted onto microwave-dried filters on a hot plate and the radio activity is counted in Microbia counter.
reported.endpoint: inhibition (%)

- Cc1nnn(-c2ccc(-c3ccc(C4(C(=O)O)CC4)cc3)cc2)c1NC(=O)O[C@H](C)c1ccccc1: 23.9
- O=C(O)C1CN(Cc2ccc(OCc3ccc(Cl)c(Cl)c3)cc2)C1: -5.42
- CN[C@@H]1CCc2[nH]c3ccc(C(N)=O)cc3c2C1: 19.6
- NC(=O)[C@@H]1CCCN1C(=O)[C@H](Cc1c[nH]cn1)NC(=O)[C@@H]1CCC(=O)N1: -8.73
- Cc1nc(-c2ccc(C(F)(F)F)cc2)sc1COc1ccc([C@H](CC(=O)O)c2ccon2)cc1: -8.39
- C[C@]1(C(=O)N(CCCC(=O)O)Cc2cccc(Cl)c2)CCN1C(=O)c1csc2ccccc12: 3.17
- Cc1c(OCc2cccc(-c3ccc(C(=O)O)cc3)c2)cc2c(c1C)C(=O)C(C1CCCC1)C2 (centres undefined): 60
- Cc1nc(C(=O)N2CCC[C@H]2Cc2nnc(-c3ccccc3)o2)c(-c2ccccc2F)s1: 26.4
- COC1CCN(c2cccc(-c3cc(NC(C)=O)nc(-n4nc(C)cc4C)n3)n2)CC1: 17.4

====

- target.or.test.system: Translocator protein (Homo sapiens)
- test.context: Compound concentration 10 µM; call rule not given here
Labels: label 1 (active), label 0 (inactive)

• Cc1c(OCc2cccc(-c3ccc(C(=O)O)cc3)c2)cc2c(c1C)C(=O)C(C1CCCC1)C2 (stereo not drawn) = label 0
• CC(C)[C@H](CO)Nc1nc(Nc2cccc(Cl)c2)c2ncn(C(C)C)c2n1 = label 1
• Clc1cccc(Cl)c1NC1=NCCN1 = label 0
• O=c1ccc2ccc(OCCCCN3CCN(c4cccc5sccc45)CC3)cc2[nH]1 = label 0
• O=c1ccn([C@@H]2O[C@H](COP(=O)(O)OP(=O)(O)O)[C@@H](O)[C@H]2O)c(=O)[nH]1 = label 0
• CN1CCC(=C2c3ccccc3CC(=O)c3sccc32)CC1 = label 0
• N[C@H](C(=O)O)c1ccc(C(=O)O)c(C(=O)O)c1 = label 0
• CCc1ccc(OCc2ccccc2C(=O)Nc2ccc3nc(C)cc(N)c3c2)cc1 = label 1

====

- target.or.test.system: Sodium-dependent noradrenaline transporter (Homo sapiens)
- test.context: Compound concentration 10 µM
- Description: PDSP Primary Binding target: SLC6A2 - Compounds are tested at 10 uM concentration, plate are incubated at room temperature in the dark for 90 minutes. Reaction are stopped by vacuum filtration onto 0.3% polyethyleneimine soaked filter mats using Filtermate harvester. Scintilation cocktail is then melted onto microwave-dried filters on a hot plate and the radio activity is counted in Microbia counter.
reported.endpoint: inhibition

• Cc1cc(C)c(N)c(C#Cc2cccc(F)c2)n1 = 65.2%
• Cc1nc(-c2ccc(-c3ccc(C(=O)N4CCc5cc6c(cc54)C4(CCN(C)CC4)CO6)cc3)c(C)c2)no1 = 69.2%
• COc1ccc(/C=C/CCCCOc2ccc(C(=O)c3cccc(C(=O)O)c3)cc2CCC(=O)O)cc1 = -6.68%
• Brc1c(NC2=NCCN2)ccc2nccnc12 = 19.2%
• NCCc1cn(S(=O)(=O)c2c(Cl)nc3sccn23)c2ccccc12 = 84.1%

====

- target.or.test.system: Muscarinic acetylcholine receptor M2 (Homo sapiens) (UniProt P08172)
- Sequence (P08172 whole entry): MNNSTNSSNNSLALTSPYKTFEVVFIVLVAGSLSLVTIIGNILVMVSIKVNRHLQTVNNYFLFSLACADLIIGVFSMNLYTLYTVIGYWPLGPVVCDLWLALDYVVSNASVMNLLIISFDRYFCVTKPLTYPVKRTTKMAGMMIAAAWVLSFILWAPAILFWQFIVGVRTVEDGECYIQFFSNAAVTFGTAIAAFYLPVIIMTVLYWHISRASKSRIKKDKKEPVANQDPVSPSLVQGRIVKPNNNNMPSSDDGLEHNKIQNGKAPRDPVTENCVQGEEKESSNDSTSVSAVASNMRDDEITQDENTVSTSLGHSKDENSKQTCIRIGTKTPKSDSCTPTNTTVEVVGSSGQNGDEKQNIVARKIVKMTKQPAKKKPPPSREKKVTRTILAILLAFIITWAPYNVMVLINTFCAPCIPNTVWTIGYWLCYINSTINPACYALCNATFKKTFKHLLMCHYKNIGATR
- test.context: Compound concentration 10 µM
- Description: PDSP Primary Binding target: CHRM2 - Compounds are tested at 10 uM concentration, plate are incubated at room temperature in the dark for 90 minutes. Reaction are stopped by vacuum filtration onto 0.3% polyethyleneimine soaked filter mats using Filtermate harvester. Scintilation cocktail is then melted onto microwave-dried filters on a hot plate and the radio activity is counted in Microbia counter.
Below: a set of entries, each annotated with reported inhibition.
reported.endpoint: inhibition (%)

- Cc1nc(-c2ccc(-c3ccc(C(=O)N4CCc5cc6c(cc54)C4(CCN(C)CC4)CO6)cc3)c(C)c2)no1: 44.5
- CN1C[C@H](C(=O)N[C@]2(C)O[C@@]3(O)[C@@H]4CCCN4C(=O)[C@H](Cc4ccccc4)N3C2=O)C[C@@H]2c3cccc4[nH]cc(c34)C[C@H]21: 4.48
- O=S1(=O)c2cccc3cccc(c23)N1CCCN1CCN(c2ccc(F)cc2)CC1: 10.3
- C[C@@H](NCCc1ccc(O)cc1)[C@@H](O)c1ccc(O)cc1 (relative stereo): 3.91
- Cc1cc(NC(=O)NCCN2CCC(O)(Cc3ccccc3)CC2)c2ccccc2n1: 16.1
- COc1ccc(NS(=O)(=O)c2sc3ccc(Cl)cc3c2C)cc1N1CCNCC1: 17
- O=C(O)CC1CCC2(CC1)CCN(c1cc(OC(F)(F)F)ccc1Cl)CC2: 27.1
- CN1C2CCC1CC(OC(c1ccc(F)cc1)c1ccc(F)cc1)C2 (centres undefined): 111
- COc1ccnc(N2CCC3(CCCN(Cc4c[nH]c5ccccc45)C3=O)CC2)n1: -2.35

====

- target.or.test.system: Muscarinic acetylcholine receptor M1 (Homo sapiens) (UniProt P11229)
- Sequence (P11229 whole entry): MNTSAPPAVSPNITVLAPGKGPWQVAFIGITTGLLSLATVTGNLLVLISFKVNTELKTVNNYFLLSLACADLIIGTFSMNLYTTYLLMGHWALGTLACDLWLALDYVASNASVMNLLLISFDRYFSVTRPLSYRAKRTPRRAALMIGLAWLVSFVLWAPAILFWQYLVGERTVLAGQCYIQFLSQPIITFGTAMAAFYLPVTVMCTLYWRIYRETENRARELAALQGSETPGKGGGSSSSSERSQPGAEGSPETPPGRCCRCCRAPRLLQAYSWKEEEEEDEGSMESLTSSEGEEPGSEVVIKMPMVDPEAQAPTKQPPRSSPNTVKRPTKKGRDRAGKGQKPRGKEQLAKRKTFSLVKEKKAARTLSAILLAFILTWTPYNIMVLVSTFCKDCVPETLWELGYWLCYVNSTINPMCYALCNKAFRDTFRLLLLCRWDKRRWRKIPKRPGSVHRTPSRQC
- test.context: Compound concentration 10 µM
- Description: PDSP Primary Binding target: CHRM1 - Compounds are tested at 10 uM concentration, plate are incubated at room temperature in the dark for 90 minutes. Reaction are stopped by vacuum filtration onto 0.3% polyethyleneimine soaked filter mats using Filtermate harvester. Scintilation cocktail is then melted onto microwave-dried filters on a hot plate and the radio activity is counted in Microbia counter.
reported.endpoint: inhibition

• CN(C)S(=O)(=O)c1ccc(NC(=S)N2CCC(C(O)(c3ccccc3)c3ccccc3)CC2)cc1 = 8.52%
• NC[C@@H]1O[C@H](C23CC4CC(CC(C4)C2)C3)Cc2c1ccc(O)c2O = -5.8%
• CCCn1c(=O)c2[nH]c(-c3cnn(Cc4cccc(C(F)(F)F)c4)c3)nc2n(CC)c1=O = -6.12%
• Cc1cc(NC(=O)Nc2ccc(N(C)C)cc2)c2cc(F)cc(F)c2n1 = -7.92%
• CC[C@@H]1CN2C(=O)N(C)c3nc(-c4ccccc4)[nH]c3C2=N1 = 1.36%
• c1nc(CC2CCNCC2)c[nH]1 = 6.59%
• C[C@@H](NCCCc1cccc(C(F)(F)F)c1)c1cccc2ccccc12 = 17.6%
• COc1ccc(NS(=O)(=O)c2sc3ccc(Cl)cc3c2C)cc1N1CCNCC1 = -7.39%
• C[C@]1(C(=O)N(CCCC(=O)O)Cc2cccc(Cl)c2)CCN1C(=O)c1csc2ccccc12 = 5.11%
• CCCCCNC(=O)NS(=O)(=O)c1cc([N+](=O)[O-])ccc1NC1CCCCC1 = -6.06%

====

- target.or.test.system: Histamine H1 receptor (Homo sapiens) (UniProt P35367)
- Sequence (P35367 whole entry): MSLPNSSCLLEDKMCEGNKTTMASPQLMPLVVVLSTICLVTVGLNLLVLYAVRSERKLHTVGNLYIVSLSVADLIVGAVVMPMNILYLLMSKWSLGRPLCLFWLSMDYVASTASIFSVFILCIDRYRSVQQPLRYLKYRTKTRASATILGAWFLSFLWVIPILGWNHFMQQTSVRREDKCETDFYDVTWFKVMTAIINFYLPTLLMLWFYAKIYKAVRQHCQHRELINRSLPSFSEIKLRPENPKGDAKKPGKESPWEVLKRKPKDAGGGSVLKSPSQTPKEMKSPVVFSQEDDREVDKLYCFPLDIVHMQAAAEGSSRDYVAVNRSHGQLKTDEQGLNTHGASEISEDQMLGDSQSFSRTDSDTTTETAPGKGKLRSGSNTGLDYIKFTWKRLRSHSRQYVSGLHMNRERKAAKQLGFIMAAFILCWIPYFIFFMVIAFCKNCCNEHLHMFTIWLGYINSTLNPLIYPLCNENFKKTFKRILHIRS
- test.context: Compound concentration 10 µM
- Description: PDSP Primary Binding target: HRH1 - Compounds are tested at 10 uM concentration, plate are incubated at room temperature in the dark for 90 minutes. Reaction are stopped by vacuum filtration onto 0.3% polyethyleneimine soaked filter mats using Filtermate harvester. Scintilation cocktail is then melted onto microwave-dried filters on a hot plate and the radio activity is counted in Microbia counter.
Property: inhibition; scope: individual molecules
reported.endpoint: inhibition

- C[C@]1(C(=O)N(CCCC(=O)O)Cc2cccc(Cl)c2)CCN1C(=O)c1csc2ccccc12: 15.4%
- CCCNS(=O)(=O)Nc1ncnc(OCCOc2ncc(Br)cn2)c1-c1ccc(Br)cc1: 11.5%
- CC(C)C[C@H](NC(=O)N1CCCCCC1)C(=O)N[C@H](Cc1cn(C)c2ccccc12)C(=O)N[C@H](Cc1ccccn1)C(=O)O: 5.31%
- Cc1cc(C)c(N)c(C#Cc2cccc(F)c2)n1: 9.77%
- C[C@H](CO)Nc1nc(SCc2cccc(Cl)c2F)nc2[nH]c(=O)sc12: 19%
- FC(F)(F)c1c(N2CCC(c3ccccc3)CC2)ccn2c(CC3CC3)nnc12: 33%
- O=C(Cc1ccc(Cl)c(Cl)c1)N1CCCC[C@H]1CN1CCCC1: 23.8%
- Cc1ccccc1N1CCN(S(=O)(=O)C[C@]23CC[C@H](C[C@@H]2NC(=O)[C@@H](N)CCS(C)(=O)=O)C3(C)C)CC1: 0.34%
- O=C(O)C1CN(Cc2ccc(-c3nc4cc(Cc5ccccc5F)ccc4s3)c(F)c2)C1: 37.5%

====

- target.or.test.system: Muscarinic acetylcholine receptor M5 (Homo sapiens) (UniProt P08912)
- Sequence (P08912 whole entry): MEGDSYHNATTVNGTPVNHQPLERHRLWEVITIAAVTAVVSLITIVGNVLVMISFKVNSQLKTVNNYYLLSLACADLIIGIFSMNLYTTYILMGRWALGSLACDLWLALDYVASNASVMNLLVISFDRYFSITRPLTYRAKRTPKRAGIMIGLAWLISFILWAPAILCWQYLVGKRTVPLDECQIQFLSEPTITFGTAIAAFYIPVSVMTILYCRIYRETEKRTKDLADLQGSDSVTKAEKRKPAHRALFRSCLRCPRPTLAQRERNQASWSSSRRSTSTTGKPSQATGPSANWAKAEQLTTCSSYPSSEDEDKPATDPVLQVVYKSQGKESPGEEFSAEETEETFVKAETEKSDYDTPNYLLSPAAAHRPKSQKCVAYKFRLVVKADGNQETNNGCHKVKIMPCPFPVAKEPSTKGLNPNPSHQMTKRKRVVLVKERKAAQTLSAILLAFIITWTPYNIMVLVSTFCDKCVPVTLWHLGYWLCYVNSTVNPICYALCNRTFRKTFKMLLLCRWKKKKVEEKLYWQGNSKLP
- test.context: Compound concentration 10 µM
- Description: PDSP Primary Binding target: CHRM5 - Compounds are tested at 10 uM concentration, plate are incubated at room temperature in the dark for 90 minutes. Reaction are stopped by vacuum filtration onto 0.3% polyethyleneimine soaked filter mats using Filtermate harvester. Scintilation cocktail is then melted onto microwave-dried filters on a hot plate and the radio activity is counted in Microbia counter.
reported.endpoint: inhibition

- NC[C@@H]1O[C@H](C23CC4CC(CC(C4)C2)C3)Cc2c1ccc(O)c2O: 29.6%
- O=S1(=O)c2cccc3cccc(c23)N1CCCN1CCN(c2ccc(F)cc2)CC1: 15.9%
- Clc1cccc(COc2cncc(N3CCNCC3)n2)c1: 85.1%
- Cc1ccc2c(c1)c1c(n2CCc2ccc(C)nc2)CCN(C)C1: -2.89%
- CN(C)C(=O)C(CCN1CCC(O)(c2ccc(Cl)cc2)CC1)(c1ccccc1)c1ccccc1: 2.95%
- Cc1nn(C)c(C)c1-c1cccc2c1CC[C@H](N(C)C)C2: 69.2%
- O=C(Cc1ccccc1)Nc1nc2ccc(Cl)cc2c2nc(-c3ccco3)nn12: -3.93%
- Nc1nc2c(c(N3CCNCC3)n1)CCC1=C2[C@@H]2CCCC[C@@H]2O1: -3.04%
- FC(F)(F)c1c(N2CCC(c3ccccc3)CC2)ccn2c(CC3CC3)nnc12: -6.28%
- Cc1cccc([C@H](C)c2c[nH]cn2)c1C: 3.92%
- Cc1nc(-c2ccc(-c3ccc(C(=O)N4CCc5cc6c(cc54)C4(CCN(C)CC4)CO6)cc3)c(C)c2)no1: 93.6%
- CN1C2CCC1CC(OC(c1ccc(F)cc1)c1ccc(F)cc1)C2 (configuration not stated): 94.5%
- CC(C)Oc1ccccc1C(=O)Nc1ccccc1C(=O)Nc1cccc(S(=O)(=O)C(F)(F)F)c1: -4.83%
- O=C(O)CC1CCC2(CC1)CCN(c1cc(OC(F)(F)F)ccc1Cl)CC2: -6.92%
- O=C(O)COc1cccc(CN(Cc2ccc(-n3cccn3)cc2)S(=O)(=O)c2cccnc2)c1: -5.22%
- Cc1ccccc1C(=O)Nc1ccc(C(=O)N2CCCC(O)c3cc(Cl)ccc32)c(C)c1 (configuration not stated): 4.97%
- COc1ccc(S(=O)(=O)N2c3ccc(Cl)cc3[C@](O)(c3ccccc3Cl)[C@@H]2C(=O)N2CCC[C@H]2C(N)=O)cc1OC: 7.17%
- Cc1ccc(O)c([C@H](CCN(C(C)C)C(C)C)c2ccccc2)c1: 0%
- N[C@H](C(=O)O)c1ccc(C(=O)O)c(C(=O)O)c1: 14.1%
- O=C(c1cc2c(cc1F)OC(c1ccc(F)cc1)(c1ccc(Cl)cc1Cl)O2)N1CCOCC1 (configuration not stated): -6.56%
- Cc1nc(C#Cc2ccnc(Cl)c2)c(C)n1-c1ccc(OC(F)(F)F)cc1: -6.77%
- Cc1csc2c(N[C@@H](C)CN3CCN(S(=O)(=O)c4ccc(Cl)c(Cl)c4)CC3)ncnc12: -7.08%
